Where these numbers come from: patent US20260174878A1

Entries and their measured Dmax follow.
Molecular target: IRAK4 protein in normal human PBMCs (Homo sapiens, UniProt Q9NWZ3)
Construct: host or cells: normal human PBMCs
Assay: Degradation of IRAK4 protein in normal human PBMCs (AlphaLISA)
Format: cell-based
Conditions: 24 h incubation
Report as a plain number; the unit % is understood.

Record excerpt, results attached:
Compound	Readout kind	Data value
O=C1CCN(c2cc(C(=O)N3CCC(OCCCN4CCC(n5cc(NC(=O)c6cnn7ccc(N8C[C@H]9C[C@@H]8CO9)nc67)c(C(F)F)n5)CC4)CC3)ccc2Cl)C(=O)N1	Dmax	99.2
O=C1CCN(c2cc(C(=O)N3CCC4(CCC(CCN5CCC(n6cc(NC(=O)c7cnn8ccc(N9CCOCC9)nc78)c(C(F)F)n6)CC5)CC4)CC3)ccc2Cl)C(=O)N1	Dmax	95.7
CN(CCC1CCN(C(=O)c2ccc(Cl)c(N3CCC(=O)NC3=O)c2)CC1)C[C@H]1CC[C@H](n2cc(NC(=O)c3cnn4ccc(N5CCC[C@H](N)C5)nc34)c(C(F)F)n2)CC1	Dmax	99.5
O=C1CCN(c2cc(C(=O)N3CCC4(CCN(C[C@H]5CC[C@H](n6cc(NC(=O)c7cnn8ccc(N9CCOCC9)nc78)c(C(F)F)n6)CC5)CC4)CC3)ccc2Cl)C(=O)N1	Dmax	99.1
COc1cc2nn([C@H]3CC[C@@](COCCC4CCN(C(=O)c5ccc(Cl)c(N6CCC(=O)NC6=O)c5)CC4)(OC)CC3)cc2cc1NC(=O)c1cccc(C(F)(F)F)n1	Dmax	98.6

Q: If you can, please state the reported Dmax value of O=C1CCN(c2cc(C(=O)N3CCC4(CCC(CN5CCC(n6cc(NC(=O)c7cnn8ccc(N9CCOCC9)nc78)c(C(F)F)n6)CC5)CC4)CC3)ccc2F)C(=O)N1 .
Ans: 98

====

Biological target: IRAK4 protein in normal human PBMCs (Homo sapiens, UniProt Q9NWZ3)
Construct: host or cells: normal human PBMCs
Sequence (Q9NWZ3 1-460): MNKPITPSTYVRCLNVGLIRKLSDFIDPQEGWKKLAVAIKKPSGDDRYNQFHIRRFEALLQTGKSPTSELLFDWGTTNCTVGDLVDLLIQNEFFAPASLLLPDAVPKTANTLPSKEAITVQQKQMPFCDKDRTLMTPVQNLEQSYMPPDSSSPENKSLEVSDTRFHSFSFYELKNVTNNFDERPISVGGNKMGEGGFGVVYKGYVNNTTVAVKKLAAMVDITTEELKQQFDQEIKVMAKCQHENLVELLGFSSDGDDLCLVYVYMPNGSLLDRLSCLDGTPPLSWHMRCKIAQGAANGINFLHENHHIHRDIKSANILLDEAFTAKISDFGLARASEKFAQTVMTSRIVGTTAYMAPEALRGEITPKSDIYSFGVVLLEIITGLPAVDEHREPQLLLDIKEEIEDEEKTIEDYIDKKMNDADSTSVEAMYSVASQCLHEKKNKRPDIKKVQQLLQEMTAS
Test: Degradation of IRAK4 protein in normal human PBMCs (AlphaLISA)
Type: cell-based
Details: 24 h incubation
Readout kind: Dmax (%)
Report as a plain number; the unit % is understood.

Record excerpt, results attached:
Molecule	Units symbol	Dmax
COc1ccc(C(=O)N2CCC3(CCC(CN4CCC(n5cc(NC(=O)c6cnn7ccc(N8CC9CCC(C8)O9)nc67)c(C(F)F)n5)CC4)CC3)CC2)cc1N1CCC(=O)NC1=O [Example 6]	%	97.9
O=C1CCN(c2cc(C(=O)N3CCC(CCCCN4CCC(n5cc(NC(=O)c6cnn7ccc(N8C[C@H]9C[C@@H]8CO9)nc67)c(C(F)F)n5)CC4)CC3)ccc2Cl)C(=O)N1 [Example 7]	%	98.1
O=C1CCN(c2cc(C(=O)N3CCC4(CCN(C[C@H]5CC[C@H](n6cc(NC(=O)c7cnn8ccc(N9CC%10CCC(C9)O%10)nc78)c(C(F)F)n6)CC5)CC4)CC3)ccc2Cl)C(=O)N1 [Example 11]	%	97.4
Cc1ccc(C(=O)N2CCC3(CCC(CN4CCC(n5cc(NC(=O)c6cnn7ccc(N8CCC[C@H](O)C8)nc67)c(C(F)F)n5)CC4)CC3)CC2)cc1N1CCC(=O)NC1=O [Example 25]	%	97.5

Q: Missing value: Dmax, IRAK4 protein in normal human PBMCs (Homo sapiens, UniProt Q9NWZ3), entry O=C1CCN(c2cc(C(=O)N3CCC4(CCN(C[C@H]5CC[C@H](n6cc(NC(=O)c7cnn8ccc(N9CC%10(COC%10)C9)nc78)c(C(F)F)n6)CC5)CC4)CC3)ccc2Cl)C(=O)N1 [Example 19] . Fill in?
Ans: 98
